Assay remarks: Multiple ascending dose plasma pharmacokinetics in healthy volunteers
Assay type: in vivo, human
Applied conditions: human, plasma, oral, 5 mg, 5 mg capsules once daily, Day 7; mean ± SD; read-out: AUC0-24
Test readout: AUC(0-t) (µg·h/mL)
Hi! Could you send only the number? It should be in µg·h/mL, unit omitted.

Exercise: Quickly give me recorded AUC(0-t) for Cl.N#Cc1cccc(-c2ccc3ncc(-c4cc(F)cc(F)c4)c(N4CCC(N)CC4)c3c2)c1O [paltusotine]
Key: 0.421

* * *

Assay remarks: Multiple ascending dose plasma pharmacokinetics in healthy volunteers
Type: in vivo, human
Applied conditions: human, plasma, oral, 20 mg, 20 mg capsules once daily, Day 10; mean ± SD
Test readout: Tmax (h)
Hi! Could you send only the number? It should be in h, unit omitted.

Exercise: Quickly give me recorded Tmax for Cl.N#Cc1cccc(-c2ccc3ncc(-c4cc(F)cc(F)c4)c(N4CCC(N)CC4)c3c2)c1O [paltusotine]
Key: 1.6

Values from paper PMC8894159
